Target: human serum albumin (human) (UniProt P02768)
Sequence (P02768 25-609 limits assumed): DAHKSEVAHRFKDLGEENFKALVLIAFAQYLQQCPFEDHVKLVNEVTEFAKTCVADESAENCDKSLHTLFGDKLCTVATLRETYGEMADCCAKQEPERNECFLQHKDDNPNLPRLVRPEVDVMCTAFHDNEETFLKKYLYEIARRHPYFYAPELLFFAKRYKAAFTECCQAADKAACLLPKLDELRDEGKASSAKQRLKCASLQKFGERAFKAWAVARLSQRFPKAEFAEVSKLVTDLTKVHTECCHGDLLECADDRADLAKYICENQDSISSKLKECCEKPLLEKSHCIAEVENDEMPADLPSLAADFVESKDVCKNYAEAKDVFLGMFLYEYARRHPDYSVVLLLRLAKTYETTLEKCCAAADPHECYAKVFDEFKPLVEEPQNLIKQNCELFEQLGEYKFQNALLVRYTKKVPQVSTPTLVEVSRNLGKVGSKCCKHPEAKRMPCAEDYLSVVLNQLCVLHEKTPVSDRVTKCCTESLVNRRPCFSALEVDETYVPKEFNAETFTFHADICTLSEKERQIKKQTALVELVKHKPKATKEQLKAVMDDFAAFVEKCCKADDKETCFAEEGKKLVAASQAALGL
Assay: screening ELISA
measurement-label: HSA
Give a plain numeric answer without units written out.

The following binders have reported results that may help.
binder: SEQ ID NO 201 (designed binder) MLPAPKNLVVSRVTEDSARLSWTAPDAAFDSFNIDYWETWVIGEAIVLTVPGSERSYDLTGLKPGTEYEVIIPGVKGGTISPPLSAIFTT
HSA: 11400

binder: SEQ ID NO 264 (designed binder) MLPAPKNLVVSRVTEDSARLSWTAPDAAFDSFRIKYQEWWVEGEAIVLTVPGSERSYDLTGLKPGTEYVVQIAGVKGGLSSYPLSAIFTT
HSA: 2550

Challenge: Name the recorded HSA of the binder listed here: SEQ ID NO 289 (designed binder) MLPAPKNLVVSRVTEDSARLSWTAPDAAFDSFAIPYYEDTNDGEAIVLTVPGSERSYDLTGLKPGTEYWVSIQGVKGGTVSGPLSAIFTT
Response given: 2150

Challenge: Name the recorded HSA of the binder listed here: SEQ ID NO 287 (designed binder) MLPAPKNLVVSRVTEDSARLSWTAPDAAFDSFTIEYHESGPVGEAIVLTVPGSERSYDLTGLKPGTEYMVWIFGVKGGFVSRPLSAIFTT
Response given: 5500

Challenge: Name the recorded HSA of the binder listed here: SEQ ID NO 57 (designed binder) MLPAPKNLVVSRVTEDSARLSWTAPDAAFDSFSIKYLEWWQDGEAIVLTVPGSERSYDLTGLKPGTEYYVHIAGVKGGYRSYPLSAIFTT
Response given: 16900

Challenge: Name the recorded HSA of the binder listed here: SEQ ID NO 120 (designed binder) MLPAPKNLVVSRVTEDSARLSWTAPDAAFDSFRIEYIEWWVGGEAIVLTVPGSERSYDLTGLKPGTEYWVDIKGVKGGKRSYPLSAIFTT
Response given: 1850

Challenge: Name the recorded HSA of the binder listed here: SEQ ID NO 45 (designed binder) MLPAPKNLVVSRVTEDSARLSWTAPDAAFDSFAIYYLESYPEGEAIVLTVPGSERSYDLTGLKPGTEYWVGIDGVKGGTWSSPLSAIFTT
Response given: 2880

Challenge: Name the recorded HSA of the binder listed here: SEQ ID NO 102 (designed binder) MLPAPKNLVVSRVTEDSARLSWTAPDAAFDSFSIDYDEPQPVGEAIVLTVPGSERSYDLTGLKPGTEYRVDIWGVKGGPTSGPLRATFTT
Response given: 13400

Challenge: Name the recorded HSA of the binder listed here: SEQ ID NO 94 (designed binder) MLPAPKNLVVSRITEDSARLSWTAPDAAFDSFGIYYYEWWSTGEAIVLTVPGSERSYDLTGPKPGTEYYVKISGVKGGYRSYPLSAIFTT
Response given: 9900
